# test_method_notes: CellTiter-Glo cell viability assay, HEK293T CLPP−/− (ClpP dependence);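 note: CellTiter-Glo luminescent signal read on a microplate reader once HEK293T CLPP−/− cells had been exposed to compounds for 72 h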
# conditions: human, HEK293T CLPP−/− cells, HEK293T CLPP-/- Cell viability (% of controll), 0.6 μM; 72 h; dose–response, individual replicates
measured_quantity: viability at 72 h, 0.6 µM (%)

>>> value_measured("CNCC#Cc1cccc(CN2C(=O)C3=C(CCN(Cc4ccc(-n5cc(-c6ccccc6)nn5)cc4)C3)N3CCN=C23)c1 [38b]")
117

* * *

# Test system: PANC-1 cells
# test_method_notes: CellTiter-Glo luminescent cell viability assay, PANC-1
# conditions: PANC-1; 8.3 µM; 72 h; second-set screening; mean ± SD, n = 2
Listed below: Cell Viability (% of Control) 8.3 µM values for each entry.
measured_quantity: Cell Viability (% of Control) 8.3 µM

>>> value_measured("NCC#Cc1ccc(CN2C(=O)C3=C(CCN(Cc4ccc(-n5cc(-[c-]6cccc6)nn5)cc4)C3)N3CCN=C23)cc1.[Fe+2].c1cc[cH-]c1 [I/A, reference compound]")
"39 ± 7 % of Control"
>>> value_measured("CN(C)CC#Cc1cccc(CN2C(=O)C3=C(CCN(Cc4ccc(-n5cc(-[c-]6cccc6)nn5)cc4)C3)N3CCN=C23)c1.[Fe+2].c1cc[cH-]c1 [39a]")
"62 ± 72 % of Control"
>>> value_measured("NCC#Cc1cccc(CN2C(=O)C3=C(CCN(Cc4ccc(C(=O)N[c-]5cccc5)cc4)C3)N3CCN=C23)c1.[Fe+2].c1cc[cH-]c1 [33a]")
"107 ± 9 % of Control"
>>> value_measured("NCc1cccc(CN2C(=O)C3=C(CCN(Cc4ccc(-n5cc(-[c-]6cccc6)nn5)cc4)C3)N3CCN=C23)c1.[Fe+2].c1cc[cH-]c1 [37a]")
"123 ± 5 % of Control"
>>> value_measured("CNCC#Cc1cccc(CN2C(=O)C3=C(CCN(Cc4ccc(-n5cc(-[c-]6cccc6)nn5)cc4)C3)N3CCN=C23)c1.[Fe+2].c1cc[cH-]c1 [38a]")
"0 ± 0 % of Control"
>>> value_measured("NCC#Cc1cccc(CN2C(=O)C3=C(CCN(Cc4ccc(-n5cc(-[c-]6cccc6)nn5)cc4)C3)N3CCN=C23)c1.[Fe+2].c1cc[cH-]c1")
"92 ± 14 % of Control"
>>> value_measured("O=C1C2=C(CCN(Cc3ccc(-n4cc(-[c-]5cccc5)nn4)cc3)C2)N2CCN=C2N1Cc1cccc(C#CCN2CCCCC2)c1.[Fe+2].c1cc[cH-]c1 [40a]")
"72 ± 61 % of Control"
>>> value_measured("NCC#Cc1cccc(CN2C(=O)C3=C(CCN(Cc4ccc(NC(=O)[c-]5cccc5)cc4)C3)N3CCN=C23)c1.[Fe+2].c1cc[cH-]c1 [23a]")
"104 ± 10 % of Control"
>>> value_measured("O=C1C2=C(CCN(Cc3ccc(-n4cc(-[c-]5cccc5)nn4)cc3)C2)N2CCN=C2N1Cc1cccc(C#CCN2CCOCC2)c1.[Fe+2].c1cc[cH-]c1 [42a]")
"75 ± 31 % of Control"

* * *

# Test system: Fadu cells
# test_method_notes: CellTiter-Glo luminescent cell viability assay, Fadu
# conditions: Fadu; 8.3 µM; 72 h; second-set screening; mean ± SD, n = 2
measured_quantity: Cell Viability (% of Control) 8.3 µM

>>> value_measured("NCc1cccc(CN2C(=O)C3=C(CCN(Cc4ccc(-n5cc(-[c-]6cccc6)nn5)cc4)C3)N3CCN=C23)c1.[Fe+2].c1cc[cH-]c1 [37a]")
"70 ± 20 % of Control"
>>> value_measured("CN(C)CC#Cc1cccc(CN2C(=O)C3=C(CCN(Cc4ccc(-n5cc(-[c-]6cccc6)nn5)cc4)C3)N3CCN=C23)c1.[Fe+2].c1cc[cH-]c1 [39a]")
"45 ± 52 % of Control"
>>> value_measured("NCC#Cc1cccc(CN2C(=O)C3=C(CCN(Cc4ccc(C(=O)N[c-]5cccc5)cc4)C3)N3CCN=C23)c1.[Fe+2].c1cc[cH-]c1 [33a]")
"93 ± 2 % of Control"
>>> value_measured("NCC#Cc1ccc(CN2C(=O)C3=C(CCN(Cc4ccc(-n5cc(-[c-]6cccc6)nn5)cc4)C3)N3CCN=C23)cc1.[Fe+2].c1cc[cH-]c1 [I/A, reference compound]")
"66 ± 24 % of Control"
>>> value_measured("O=C1C2=C(CCN(Cc3ccc(-n4cc(-[c-]5cccc5)nn4)cc3)C2)N2CCN=C2N1Cc1cccc(C#CCN2CCOCC2)c1.[Fe+2].c1cc[cH-]c1 [42a]")
"112 ± 11 % of Control"
>>> value_measured("CNCC#Cc1cccc(CN2C(=O)C3=C(CCN(Cc4ccc(-n5cc(-[c-]6cccc6)nn5)cc4)C3)N3CCN=C23)c1.[Fe+2].c1cc[cH-]c1 [38a]")
"0 ± 1 % of Control"

* * *

# Test system: PANC-1 cells
# test_method_notes: CellTiter-Glo luminescent cell viability assay, PANC-1
# conditions: Homo sapiens, PANC-1, 72 h, read-out: Cell Viability (% of Control) 8.3 µM, PANC-1; 8.3 µM; 72 h; second-set screening; mean ± SD, n = 2
Listed below: viability at 8.3 µM values for each entry.
measured_quantity: viability at 8.3 µM (%)

>>> value_measured("NCC#Cc1ccc(CN2C(=O)C3=C(CCN(Cc4ccc(-n5cc(-c6ccccc6)nn5)cc4)C3)N3CCN=C23)cc1 [I/B, reference compound]")
61
>>> value_measured("NCC#Cc1cccc(CN2C(=O)C3=C(CCN(Cc4ccc(NC(=O)c5ccccc5)cc4)C3)N3CCN=C23)c1 [23b]")
106
>>> value_measured("NCC#Cc1cccc(CN2C(=O)C3=C(CCN(Cc4ccc(-n5cc(-c6ccccc6)nn5)cc4)C3)N3CCN=C23)c1 [2b]")
0
>>> value_measured("NCC#Cc1cccc(CN2C(=O)C3=C(CCN(Cc4ccc(-n5cc(-c6ccc(F)cc6)nn5)cc4)C3)N3CCN=C23)c1 [36b]")
0
>>> value_measured("CN(C)CC#Cc1cccc(CN2C(=O)C3=C(CCN(Cc4ccc(-n5cc(-c6ccccc6)nn5)cc4)C3)N3CCN=C23)c1 [39b]")
25
>>> value_measured("CN1CCN(CC#Cc2cccc(CN3C(=O)C4=C(CCN(Cc5ccc(-n6cc(-c7ccccc7)nn6)cc5)C4)N4CCN=C34)c2)CC1 [41b]")
0
>>> value_measured("NCC#Cc1cccc(CN2C(=O)C3=C(CCN(Cc4ccc(-n5cc(-c6cc(F)cc(F)c6)nn5)cc4)C3)N3CCN=C23)c1 [36c]")
0
>>> value_measured("NCc1cccc(CN2C(=O)C3=C(CCN(Cc4ccc(-n5cc(-c6ccccc6)nn5)cc4)C3)N3CCN=C23)c1 [37b]")
113
>>> value_measured("O=C1C2=C(CCN(Cc3ccc(-n4cc(-c5ccccc5)nn4)cc3)C2)N2CCN=C2N1Cc1cccc(C#CCN2CCCCC2)c1 [40b]")
12
>>> value_measured("NCC#Cc1cccc(CN2C(=O)C3=C(CCN(Cc4ccc(-n5cc(-c6cccc(F)c6)nn5)cc4)C3)N3CCN=C23)c1 [36a]")
0
>>> value_measured("NCC#Cc1cccc(CN2C(=O)C3=C(CCN(Cc4ccc(C(=O)Nc5ccccc5)cc4)C3)N3CCN=C23)c1 [33b]")
109
>>> value_measured("CNCC#Cc1cccc(CN2C(=O)C3=C(CCN(Cc4ccc(-n5cc(-c6ccccc6)nn5)cc4)C3)N3CCN=C23)c1 [38b]")
0
>>> value_measured("Cc1ccccc1CN1C(=O)C2=C(CCN(Cc3ccccc3)C2)N2CCN=C12 [ONC201, reference compound]")
35
>>> value_measured("O=C1C2=C(CCN(Cc3ccc(-n4cc(-c5ccccc5)nn4)cc3)C2)N2CCN=C2N1Cc1cccc(C#CCN2CCOCC2)c1 [42b]")
82

* * *

# Tested on: Fadu cells
# test_method_notes: CellTiter-Glo luminescent cell viability assay, Fadu
# conditions: ratio of mean best-fit IC50 for primary fibroblasts and best-fit IC50 for Fadu
measured_quantity: Selectivity Index (SI) Fibroblast/Fadu

>>> value_measured("NCC#Cc1ccc(CN2C(=O)C3=C(CCN(Cc4ccc(-n5cc(-c6ccccc6)nn5)cc4)C3)N3CCN=C23)cc1 [I/B, reference compound]")
1.1
>>> value_measured("NCC#Cc1ccc(CN2C(=O)C3=C(CCN(Cc4ccc(-n5cc(-[c-]6cccc6)nn5)cc4)C3)N3CCN=C23)cc1.[Fe+2].c1cc[cH-]c1 [I/A, reference compound]")
1.5
>>> value_measured("CNCC#Cc1cccc(CN2C(=O)C3=C(CCN(Cc4ccc(-n5cc(-c6cccc(F)c6)nn5)cc4)C3)N3CCN=C23)c1 [43a]")
1.0
>>> value_measured("CNCC#Cc1cccc(CN2C(=O)C3=C(CCN(Cc4ccc(-n5cc(-c6ccc(F)cc6)nn5)cc4)C3)N3CCN=C23)c1 [43b]")
1.1
>>> value_measured("CNCC#Cc1cccc(CN2C(=O)C3=C(CCN(Cc4ccc(-n5cc(-[c-]6cccc6)nn5)cc4)C3)N3CCN=C23)c1.[Fe+2].c1cc[cH-]c1 [38a]")
1.6
>>> value_measured("CNCC#Cc1cccc(CN2C(=O)C3=C(CCN(Cc4ccc(-n5cc(-c6ccccc6)nn5)cc4)C3)N3CCN=C23)c1 [38b]")
1.3
>>> value_measured("CNCC#Cc1cccc(CN2C(=O)C3=C(CCN(Cc4ccc(-n5cc(-c6cc(F)cc(F)c6)nn5)cc4)C3)N3CCN=C23)c1 [43c]")
1.0
